Study System: PCSK9 (Homo sapiens, UniProt Q8NBP7, G670E/V474I)
Sequence (Q8NBP7 with tags, fused parts or gaps V474I/G670E): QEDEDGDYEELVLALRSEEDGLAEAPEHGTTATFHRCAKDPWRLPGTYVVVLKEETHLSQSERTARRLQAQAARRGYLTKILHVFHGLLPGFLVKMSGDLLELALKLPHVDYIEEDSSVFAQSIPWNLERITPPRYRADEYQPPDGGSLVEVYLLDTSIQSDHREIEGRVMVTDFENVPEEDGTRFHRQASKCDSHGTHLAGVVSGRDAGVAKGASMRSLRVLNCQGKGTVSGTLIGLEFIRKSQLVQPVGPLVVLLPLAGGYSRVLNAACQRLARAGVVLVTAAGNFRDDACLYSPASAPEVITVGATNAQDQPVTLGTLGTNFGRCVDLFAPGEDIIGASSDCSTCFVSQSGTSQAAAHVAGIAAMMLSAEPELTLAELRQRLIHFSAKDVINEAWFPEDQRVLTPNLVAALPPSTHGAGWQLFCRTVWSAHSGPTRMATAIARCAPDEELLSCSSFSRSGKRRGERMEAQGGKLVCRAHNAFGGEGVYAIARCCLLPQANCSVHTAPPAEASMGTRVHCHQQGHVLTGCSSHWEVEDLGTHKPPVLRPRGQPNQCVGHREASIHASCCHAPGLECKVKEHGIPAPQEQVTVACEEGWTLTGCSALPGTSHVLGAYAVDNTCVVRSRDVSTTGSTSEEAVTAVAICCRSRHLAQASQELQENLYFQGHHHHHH
Method Notes: biochemical
pIC50: −log10 of the molar value.
Please mark 1 (yes) if the recorded pIC50 is equal to or greater than 8, and 0 (no) if it falls below.

Use these answered entries as a reference point.
Compound: Cc1cnc(N[C@H]2CC[C@H](Nc3ccc(-n4cccc(-c5cn[nH]c5)c4=O)cn3)C2)nn1
Study System: PCSK9 (Homo sapiens, UniProt Q8NBP7, G670E/V474I)
Group: 1 (yes)

Compound: COc1ccc(=O)n(-c2ccc(NCC(CCO)CNc3ncc(C)nn3)nc2)c1 (racemic)
Study System: PCSK9 (Homo sapiens, UniProt Q8NBP7, G670E/V474I)
Group: 0 (no)

Compound: COc1cccc(F)c1-c1ccc(N[C@H]2CC[C@H](Nc3ncc(C)nn3)C2)nc1
Study System: PCSK9 (Homo sapiens, UniProt Q8NBP7, G670E/V474I)
Group: 0 (no)

Compound: O=C(NC1COC1)c1cnc(N[C@H]2CC[C@H](Nc3ccc(-n4ccccc4=O)cn3)C2)nn1
Study System: PCSK9 (Homo sapiens, UniProt Q8NBP7, G670E/V474I)
Group: 0 (no)

Compound: Cc1cnc(NCC(CCO)CNc2ccc(-n3c(=O)ccc4cccnc43)cn2)nn1 (racemic)
Study System: PCSK9 (Homo sapiens, UniProt Q8NBP7, G670E/V474I)
Group: 0 (no)

Compound: Cc1cccn(-c2ccc(N[C@H]3CC[C@H](Nc4ncc(C(=O)NC5COC5)nn4)C3)nc2)c1=O
Study System: PCSK9 (Homo sapiens, UniProt Q8NBP7, G670E/V474I)
Group: 1 (yes)

Could you tell me if the measured pIC50 of Cc1cnc(NCC(CCO)CNc2ccc(-n3c(=O)ccc4ccccc43)cn2)nn1 (racemic) reaches 8 or more?
0 (no)

How about this compound: CCNC(=O)c1cnc(N[C@H]2CC[C@H](Nc3ccc(-n4ccccc4=O)cn3)C2)nn1
0 (no)

How about this compound: Cc1cccn(-c2ccc(N[C@H]3CC[C@H](Nc4ncc(C5CC5)nn4)C3)nc2)c1=O
1 (yes)

Data credit: patent US20240228469A1
